assay: chemical genetic growth profiling, strain panel (AID 1159580);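 also: tested at 20 µM; growth read once vehicle control cultures reached saturation at 30 °C; 1 = growth at the plate median or of vehicle wells; lower values mean less growth of the strain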; conditions: S. cerevisiae deletion strains, growth OD, locus YGR135W, strain pre9, active compounds read low
Hit rate of the full screen: of about 5,500 compounds, about 2,000 (36%) were called active. About 18% were inconclusive and are not listed. The list shows a part of the results.
measurement.label: normalized growth
The answer should be a number; do not append a unit.

In [3]: df
Out[3]:
                                   compound  measurement_label  reported_value
0  CC(=O)NCc1c(I)c(NC(C)=O)c(I)c(C(=O)O)c1I  normalized growth           0.997
1  C#C[C@]1(O)CCC2C3CCC4=CC(=O)CC[C@@H]4C3CC[C@@]21CC (stereo partly drawn)  normalized growth           0.975

Incoming: What value of measured normalized growth is listed for CCCCCCCCCCCC[C@H](C(=O)O)[C@@H](C)C(=O)O ?
Outgoing: 1.01

----------
Entries annotated with measured normalized growth
test: chemical genetic growth profiling, strain panel (AID 1159580); details: S. cerevisiae deletion strains, growth OD, locus YDR392W, strain spt3, active compounds read low
Hit rate of the full screen: of about 5,500 compounds, about 2,000 (36%) were called active. Inconclusive results (about 18%) are left out. The list shows a part of the results.
Field format: numeric only.

compound	normalized growth
CC(=O)NCc1c(I)c(NC(C)=O)c(I)c(C(=O)O)c1I	0.957
O=C(Nc1ccc(C(=O)O)c(O)c1)c1ccccc1	0.986
CCC(C)C(=O)O[C@H]1[C@H](O)C2C(CN3CC(C)CCC3[C@@]2(C)O)C2C[C@]34O[C@]5(O)C(OC(=O)C(C)(O)CC)CC[C@@]3(C)C5C(OC(C)=O)[C@@H](OC(C)=O)C4[C@@]21O (stereo not given in full)	1.04
NC12CC3CC(CC(C3)C1)C2	0.96

Lab note: next compound to report on.
Incoming: Recorded normalized growth for NCCC(=O)N[C@@H](Cc1cnc[nH]1)C(=O)O , please?
Outgoing: 1.03

----------
assay: chemical genetic growth profiling, strain panel (AID 1159580); conditions: S. cerevisiae deletion strains, growth OD, locus YEL037C, strain rad23, active compounds read low
The whole screen tested about 5,500 compounds, of which about 2,000 (36%) were called active. Inconclusive results (about 18%) are left out. The list shows a part of the results.
measurement.label: normalized growth
Answer with the value's number alone.

compound	normalized growth
CCC(C)C(=O)O[C@H]1[C@H](O)C2C(CN3CC(C)CCC3[C@@]2(C)O)C2C[C@]34O[C@]5(O)C(OC(=O)C(C)(O)CC)CC[C@@]3(C)C5C(OC(C)=O)[C@@H](OC(C)=O)C4[C@@]21O (some centres undefined)	1.03
CC1(C)CC[C@@]2(C(=O)O)C(C1)C1=CCC3[C@@]4(C)CC[C@H](O)C(C)(C)C4CC[C@@]3(C)[C@]1(C)C[C@@H]2O (some centres undefined)	1.02
CC1(C)CCC2(C(=O)O)CCC3(C)C(=CCC4C5(C)CCC(O)C(C)(C)C5C(O)CC43C)C2C1 (centres undefined)	1.02
Nc1c2c(nc3ccccc13)CCCC2	0.978
C[C@H]1[C@H](C)CC[C@]2(CO)CC[C@]3(C)C(=CCC4[C@@]5(C)CC[C@H](O)C(C)(C)C5CC[C@]43C)[C@H]12 (some centres undefined)	0.981
C[C@@H]1CC[C@]2(C(=O)O)CC[C@]3(C)C(=CCC4[C@@]5(C)CC[C@H](O)C(C)(C)C5CC[C@]43C)C2[C@H]1C (some centres undefined)	1

Incoming: Entry CCC(C)C(NC)C(=O)O (centres undefined) : reported normalized growth = ?
Outgoing: 1.02

Incoming: May I ask what normalized growth has been recorded for COc1ccc2c3c([nH]c2c1)C(C)=NCC3 ?
Outgoing: 1

Incoming: Which normalized growth value is on record for NNc1nncc2ccccc12 ?
Outgoing: 1

----------
Each entry below carries its reported normalized growth.
test: chemical genetic growth profiling, strain panel (AID 1159580);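 also: tested at 20 µM; growth read once vehicle control cultures reached saturation at 30 °C; 1 = growth at the plate median or of vehicle wells; lower values mean less growth of the strain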; details: S. cerevisiae deletion strains, growth OD, locus YOR119C, strain RIO1, active compounds read low
In all, about 5,500 compounds went through this assay and about 2,000 (36%) were called active. About 18% were inconclusive and are not listed. This is one part of the list.
Answer using only a numeral; do not append any unit.

>>> print(df.to_string())
                                molecule  reported_value
0  Cc1nc(-c2ccccn2)nc(N(C)Cc2ccccc2)c1Cl           0.991
1                N#Cc1c2ccccc2nc2ccccc12           0.749
2  O=C(CSCc1csc2ccccc12)Nc1ccc(F)c(Cl)c1           0.965
3     Cc1nc(-c2ccccn2)nc(SCc2ccccc2)c1Cl           0.843
4              Brc1ccc2[nH]c3c(c2c1)CCC3           0.729

Incoming: Entry under review: Nc1ccc(Sc2ccccc2)nc1Sc1ccccc1 . Reported normalized growth?
Outgoing: 0.935

Incoming: Name the recorded normalized growth for CC(C)Cc1ccc(C(C)C(=O)Nc2nn(C)c3ccccc23)cc1 (configuration not stated) .
Outgoing: 0.988

Incoming: I'd like to know its normalized growth. The molecule in question is S=C(NNC(=S)NC1CC2C=CC1C2)Nc1ccc(Br)c(Cl)c1 (configuration not stated)
Outgoing: 0.994

Incoming: Requested read-out: normalized growth. Entry: Fc1cccc(Cl)c1CSc1n[nH]c(-c2cc(C(F)(F)F)cc(C(F)(F)F)c2)n1
Outgoing: 0.943

Incoming: Request the reported normalized growth associated with O=[N+]([O-])c1ccc(S(=O)(=O)c2ccccc2)nc1S(=O)(=O)c1ccccc1
Outgoing: 0.442

Incoming: Tell me the measured normalized growth of O=C(N/N=C\c1cc(Br)ccc1O)c1ccccc1Oc1ccccc1 , please.
Outgoing: 0.97

Incoming: Look up normalized growth for this molecule: Clc1ccc2c(c1)c1ccccc1n2CN1CCOCC1
Outgoing: 0.501

----------
test: chemical genetic growth profiling, strain panel (AID 1159580);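 also: tested at 20 µM; growth read once vehicle control cultures reached saturation at 30 °C; 1 = growth at the plate median or of vehicle wells; lower values mean less growth of the strain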; conditions: S. cerevisiae deletion strains, growth OD, locus YDL101C, strain DUN1, active compounds read low
The campaign covered roughly 5,500 compounds. About 2,000 (36%) were called active. About 18% were inconclusive and are not listed. Some of the results follow.
measurement.label: normalized growth
Give only the figure.

In the examples that follow, each entry is paired with its recorded normalized growth.
molecule	normalized growth
Cc1ccc(C)c(CSc2nc(C3CCCCC3)c(C#N)c(=O)[nH]2)c1	0.983
CC(=O)OC1CC[C@@]2(C)C(CC[C@]3(C)C2CCC2C4CC(C)(C)CCC4(C(=O)O)CC[C@]23C)C1(C)C (stereo partly drawn)	0.985
Cc1ccnc(NS(=O)(=O)c2ccc(N)cc2)n1	1.01
C[C@@H]1OC(O[C@H]2C(O[C@H]3CC[C@@]4(C)C(CC[C@]5(C)C4CC=C4C6CC(C)(C)CC[C@]6(C(=O)O)CC[C@]45C)[C@]3(C)CO)OC[C@H](O)[C@@H]2O)[C@H](O)[C@H](O)[C@H]1O (stereo partly drawn)	0.44
Cc1cc(=O)n2[nH]cc(C#N)c2n1	1.01
CC(=O)OC1CC(OC(C)=O)C2(C)C(CC(OC(C)=O)C3(C)C4=CC(=O)OC(=O)C4(C)CCC32)C1(C)C (stereo not drawn)	1.02

Incoming: Which value of normalized growth has been reported for CC1(C)CC[C@]2(C(=O)O)CC[C@]3(C)C(=CCC4[C@@]5(C)CC[C@H](O)[C@@](C)(CO)C5CC[C@]43C)C2C1 (stereo partly drawn) in the records?
Outgoing: 1.02

Incoming: Bench note: what normalized growth did CCCCCc1ccc(C(=O)O/N=C\c2c(Cl)cccc2Cl)cc1 show?
Outgoing: 1.01

----------
test: chemical genetic growth profiling, strain panel (AID 1159580);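 also: tested at 20 µM; growth read once vehicle control cultures reached saturation at 30 °C; 1 = growth at the plate median or of vehicle wells; lower values mean less growth of the strain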; conditions: S. cerevisiae deletion strains, growth OD, locus YPL256C, strain CLN2
Out of some 5,500 compounds screened, about 2,000 (36%) were called active. Not shown: some 18% with an inconclusive outcome. Cut-off read from the data, not from the text of the source: active = normalized growth mostly below about 0.91 (no sharp cut-off); inconclusive = no clear call, values can overlap the other calls; inactive = mostly above about 0.92. Some of the results follow.
Could you please pick one outcome from this set? class 1 (active), class 0 (inactive)

As a guide, the following entries are already answered.
compound	answer.label
CC(C)Cc1ccc(C(C)C(=O)Nc2nn(C)c3ccccc23)cc1 (stereo not given)	class 0
CCOC(=O)c1cc(CC)sc1NC(=O)c1ccc([N+](=O)[O-])o1	class 1
OC1CCN(c2cc(C(F)(F)F)nc3cc(Cl)cc(Cl)c23)CC1	class 0
CC(=O)Nc1ccc(OCC(O)CNC(C)C)cc1 (stereo not given)	class 0
N#CC(O[C@@H]1O[C@H](CO[C@@H]2O[C@H](CO)[C@@H](O)[C@H](O)[C@H]2O)[C@@H](O)[C@H](O)[C@H]1O)c1ccccc1 (stereo not given in full)	class 0

Incoming: Entry COc1c(-c2coc3cc4c(cc3c2=O)CC(OC(C)=O)C(C)(C)O4)ccc2c1C=CC(C)(C)O2 (stereo not given) : call = ?
Outgoing: class 0

Incoming: Name the outcome recorded for COc1c(CC(=O)c2cc3c(cc2O)OC(C)(C)C(O)C3)ccc2c1C=CC(C)(C)O2 (stereo not given) in the assay.
Outgoing: class 0

Incoming: Field: outcome | Entry: Cc1cc(O)cc(C)c1Cl
Outgoing: class 0

Incoming: Dear colleague, could you share the recorded outcome for Cc1cc(O)cc(O)c1C(=O)O when you have a moment?
Outgoing: class 0

Incoming: Any idea what this test logged for Cc1nc(-c2ccccn2)[nH]c(=O)c1Cc1c(Cl)cccc1Cl ?
Outgoing: class 0
